Test system: NCI-H1944
Assay: relative viability (nuclei count vs DMSO), 5 days (fraction); higher = more cells survive
Conditions: first compound 0.03162 µM

Compound | System | relative viability
CCN(CC)CCCCNc1ncc2cc(-c3cc(OC)cc(OC)c3)c(NC(=O)NC(C)(C)C)nc2n1 + COc1cccc2cc(-c3nc([C@H]4CC[C@H](C(=O)O)CC4)n4ncnc(N)c34)[nH]c12 [OSI-027] (partner 0.5 µM) | NCI-H1944 | 0.449
O=c1cc(N2CCOCC2)oc2c(-c3cccc4c3sc3ccccc34)cccc12 + CC(=O)Nc1cccc(-n2c(=O)n(C3CC3)c(=O)c3c(Nc4ccc(I)cc4F)n(C)c(=O)c(C)c32)c1 [Trametinib] (partner 0.02 µM) | NCI-H1944 | 0.403
CCN(CC)CCCCNc1ncc2cc(-c3cc(OC)cc(OC)c3)c(NC(=O)NC(C)(C)C)nc2n1 + CC(=O)Nc1cccc(-n2c(=O)n(C3CC3)c(=O)c3c(Nc4ccc(I)cc4F)n(C)c(=O)c(C)c32)c1 [Trametinib] (partner 0.02 µM) | NCI-H1944 | 0.398
O=c1cc(N2CCOCC2)oc2c(-c3cccc4c3sc3ccccc34)cccc12 + O=C(CCCCCCC(=O)Nc1ccccc1)NO [Vorinostat] (partner 1 µM) | NCI-H1944 | 0.612
